Where do these numbers come from? They come from PubChem BioAssay AID1491.

# test.target: Neuropeptide S receptor (Homo sapiens) (UniProt Q6W5P4)
# Sequence (Q6W5P4 whole entry, looked up): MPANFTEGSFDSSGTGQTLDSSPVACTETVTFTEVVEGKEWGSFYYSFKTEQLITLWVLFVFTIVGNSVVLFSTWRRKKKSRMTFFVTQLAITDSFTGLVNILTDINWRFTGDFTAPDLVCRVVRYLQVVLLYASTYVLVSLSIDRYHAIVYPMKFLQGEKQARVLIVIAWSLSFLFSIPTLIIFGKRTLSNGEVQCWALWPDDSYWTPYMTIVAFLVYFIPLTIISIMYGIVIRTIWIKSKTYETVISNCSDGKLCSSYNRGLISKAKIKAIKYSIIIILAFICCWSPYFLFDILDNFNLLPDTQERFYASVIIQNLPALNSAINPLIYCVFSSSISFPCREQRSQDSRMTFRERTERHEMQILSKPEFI
# test.details: Confirmation Concentration-Response Assay for Antagonists of the Neuropeptide S Receptor: cAMP Signal Transduction
# test.context: CHO-NPSR cells, cAMP TR-FRET, antagonist mode; series mostly up to 22.3 µM
Results filed as inconclusive are left out. Calls of active or inactive are those of the source. Calls come from the whole dose curve; as a rule, active = well fitted inhibition curve with a large enough effect in the main read-out, with a control signal flat; inconclusive = small, poorly fitted or top-dose-only effect, or a change in a side signal; inactive = flat fitted curve, though single readings scatter.
Choose the fitting class; nothing outside 1.0 = active, 0.0 = inactive is accepted.

Before answering, review these 6 worked examples.
[[record]]
compound = "COc1ccc(N=C2S/C(=C\\c3ccc(N4CCOCC4)o3)C(=O)N2CCc2c[nH]c3ccccc23)cc1"
category_label = 1.0

[[record]]
compound = "c1ccc(CSC2=NNC(c3ccccn3)S2)cc1 (stereo unspecified)"
category_label = 0.0

[[record]]
compound = "CCOc1ccc(C2c3c(ncn(-c4ccccc4)c3=N)Oc3ccc4ccccc4c32)cc1OCC (stereo unspecified)"
category_label = 1.0

[[record]]
compound = "COc1ccccc1-c1nnc(SC2CCc3ccccc3NC2=O)s1 (stereo unspecified)"
category_label = 0.0

[[record]]
compound = "CC(=O)n1nc2nc(C)cc(C)c2c1N"
category_label = 0.0

[[record]]
compound = "CCC(C)(C)NC(=O)Cc1ccc(C)cc1"
category_label = 0.0


Hi, sorry to bother you, what did the test record for CCOc1ccc(-n2c(=S)sc3c(=O)[nH]c(SCC(=O)C(C)(C)C)nc32)cc1 ?
1.0

Hi, sorry to bother you, what did the test record for Nn1c(COc2ccccc2)nnc1SCc1cc(=O)[nH]c2ccccc12 ?
0.0

Hi, sorry to bother you, what did the test record for O=C(c1ccccc1-c1nc2ccccc2[nH]1)N1CCCCC1 ?
0.0

Hi, sorry to bother you, what did the test record for O=C(CSc1cccc[n+]1[O-])Nc1ccccc1Oc1ccccc1 ?
0.0

Hi, sorry to bother you, what did the test record for N=c1c2c(ccn1-c1ccccc1)Oc1ccc3ccccc3c1C2c1ccccc1 (stereo unspecified) ?
1.0
